// data source = PubChem BioAssay (NCI)

System: SF-268 CNS
Experiment: NCI-60 one-dose screen, 48 h
Conditions: 10 µM unless noted
The panel holds about 83,000 compounds, 20% with a hit somewhere; the sample as a whole holds those more often. The source made the active and inactive calls. How the source made its calls: active means growth percent below 10; inactive means the rest.
One label from this list, please: active, inactive

[[record]]
compound = "COc1ccc([C@@H]2C(=O)N(c3cc(OC)c(OC)c(OC)c3)[C@H]2c2ccc(OC)c(O)c2)cc1"
label_class = "inactive"

[[record]]
compound = "CNC(=O)c1cc(N2CCc3cc(NC(=O)Nc4ccc(N5CCN(C)CC5)c(C(F)(F)F)c4)ccc32)ccn1"
label_class = "inactive"

[[record]]
compound = "CCC1=Cc2c(OC)cccc2OC12C=Cc1c(OC)cccc1O2 (stereo not drawn)"
label_class = "inactive"

[[record]]
compound = "COc1ccc(OC)c(CCn2cncc2-c2c[nH]c3ccc(Cl)cc23)c1"
label_class = "inactive"

[[record]]
compound = "N#Cc1cccc(-c2cc(-c3ccc4c(c3)OCCO4)[nH]n2)c1"
label_class = "inactive"


Lookup: Hi team, can someone confirm the assay call for `COC(=O)c1cccc(NC2=C(Cl)C(=O)c3nc(C)ccc3C2=O)c1` ?
Found: inactive

Lookup: Hi team, can someone confirm the assay call for `Cc1ccc(S(=O)(=O)NCCCNc2nc(Nc3ccc(N4CCN(C)CC4)cc3)nc3ccsc23)cc1` ?
Found: inactive

Lookup: Hi team, can someone confirm the assay call for `CC1(C)CC[C@]2(C(=O)O)CC[C@]3(C)C(=CC[C@@H]4[C@@]5(C)CC[C@H](NOCCCN)C(C)(C)[C@@H]5CC[C@]43C)[C@@H]2C1` ?
Found: inactive

Lookup: Hi team, can someone confirm the assay call for `Cn1cc(-c2nc(N)nnc2-c2c[nH]c3ccc(Br)cc23)c2cc(F)ccc21` ?
Found: inactive

Lookup: Hi team, can someone confirm the assay call for `C#CCOc1cccc(-c2nc(N)nc(Nc3ccccc3SSc3ccccc3Nc3nc(N)nc(-c4cccc(OCC#C)c4)n3)n2)c1` ?
Found: active

Lookup: Hi team, can someone confirm the assay call for `N#Cc1c(-c2ccc(Br)cc2)cc(-c2c[nH]c3ccccc23)nc1N` ?
Found: inactive

* * *

System: U251 CNS
Test: NCI-60 one-dose screen, 48 h (100 = growth as untreated, 0 = no growth, -100 = all killed)
Conditions: 10 µM unless noted
The panel holds about 83,000 compounds, 20% with a hit somewhere; the sample as a whole holds those more often.
Grouping rule (growth): low: < 20%; medium: ≥ 20% and < 80%; high: ≥ 80%

Lookup: Which bin should I file `CNC(=O)c1cc(-c2ccc(NC(=S)Nc3cccc(C(F)(F)F)c3)cc2)nc2cccnc12` under?
Found: high

Lookup: Which bin should I file Cc1[nH]c(C(=O)Nc2ccccc2OCc2cccc(C(=O)NC3CCCNC3)c2)c(Cl)c1Cl (centres undefined) under?
Found: low

* * *

Tested on: TK-10 renal
Assay: NCI-60 one-dose screen, 48 h (100 = growth as untreated, 0 = no growth, -100 = all killed)
Conditions: 10 µM unless noted
The panel holds about 83,000 compounds, 20% with a hit somewhere; the sample as a whole holds those more often.
VALUE KIND: growth (%)
Entry rule: numbers only, all in %.

[[record]]
compound = "O=C(CCl)Nc1ccc(NC(=O)c2cc(Cl)ccc2O)c(Cl)c1"
value_reported = 129

[[record]]
compound = "Clc1ccc(CSc2nnc(-c3ccc(Cl)cc3)n2-c2ccccc2)cc1"
value_reported = 93.3

[[record]]
compound = "COc1ccc(/C(=N\\NC(N)=S)c2ccc(Cl)cc2)cc1OC"
value_reported = 83.3

[[record]]
compound = "C/C(=N/N)c1nnn(-c2ccc(Br)cc2)c1C"
value_reported = 98.1

[[record]]
compound = "C/C(=C(/C)C1CC1CCNC1CCC(NC(=O)OC(C)(C)C)CC1)c1ccccc1 (stereo not given)"
value_reported = 108


Sample `Cc1cc(=O)[nH]c(O)c1C#N` ; growth observed: 107

Sample `Cc1ccc(-c2cc3nc(C(Cl)Cl)nc(-c4ccc(S(=O)(=O)N(C)C)cc4)n3n2)cc1` ; growth observed: 107

Sample `O=C(/C=C/c1cc(Cl)ccc1Cl)Nc1ncc(Cc2ccc(Cl)cc2)s1` ; growth observed: 34.1

Sample `COc1ccc(-c2cc(-c3ccc(N4CCOCC4)cc3)n3c(n2)nc2ccccc23)cc1OC` ; growth observed: 98.8

Sample `CN1CCN(Cc2ccc(NC(=O)c3cncc(C#Cc4cnc5ccc(O[C@@H]6CCOC6)nn45)c3)cc2C(F)(F)F)CC1` ; growth observed: -83.5

* * *

System: EKVX NSCLC
Assay: NCI-60 one-dose screen, 48 h (100 = growth as untreated, 0 = no growth, -100 = all killed)
Conditions: 10 µM unless noted
Compounds without any hit were thinned out: in the full panel of roughly 83,000, 20% have a hit.
Decide using growth alone. Strictly below 30%: true (1). Equal to or above 30%: false (0).

[[record]]
compound = "C=C1CCc2nc(SCC(=O)O)ccc2N1"
label_class = "false (0)"

[[record]]
compound = "COc1cc2c3c(cc4c5c(ccc4c3c1OC)OCO5)N(CCN(C)C)C2=O"
label_class = "true (1)"

[[record]]
compound = "O=C(CCCCCCNC(=O)C(O)(O)C(F)(F)F)Nc1ncc(-c2ccc(Br)cc2)s1"
label_class = "true (1)"


Lookup: Answer whether the compound `NCCNC(=O)c1cccc(COc2ccccc2NC(=O)c2cc(Br)c(Br)[nH]2)c1` has growth strictly less than 30%
Found: false (0)

Lookup: Answer whether the compound `CNC(=O)c1cc(N2CCc3cc(NC(=O)Nc4ccc(N5CCOCC5)c(C(F)(F)F)c4)ccc32)ccn1` has growth strictly less than 30%
Found: false (0)

Lookup: Answer whether the compound `CCN(CC)CCOc1ccc(C(=C(C)Cc2ccc(OC)cc2)c2ccc(OCCN(CC)CC)cc2)cc1` has growth strictly less than 30%
Found: false (0)

Lookup: Answer whether the compound `CN1CCN(c2ccc(Nc3nc(NCCCNS(=O)(=O)c4ccc(C(F)(F)F)cc4)c4sccc4n3)cc2)CC1` has growth strictly less than 30%
Found: true (1)

Lookup: Answer whether the compound CC[C@]12CC(C(=O)OC)=C3Nc4ccccc4[C@@]34CCN(C14)[C@@H]1c3cc4c(cc3O[C@@H]1[C@H]2O)NC1=C(C(=O)OC)C[C@@]2(CC)C3N(CC[C@@]143)C[C@H]1O[C@H]12 (some centres undefined) has growth strictly less than 30%
Found: true (1)

Lookup: Answer whether the compound `O=C1Nc2ccccc2/C1=N\c1nnc(-c2ccccc2)o1` has growth strictly less than 30%
Found: false (0)

* * *

Below, each entry is listed alongside its reported growth.
System: OVCAR-5 ovarian
Test: NCI-60 one-dose screen, 48 h (100 = growth as untreated, 0 = no growth, -100 = all killed)
Conditions: 10 µM unless noted
About 83,000 compounds went through this panel and 20% of them were active in at least one assay; those are over-represented in the sample as a whole.
Entry rule: numbers only, all in %.

[[record]]
compound = "Cn1cc(-c2nnc(N)nc2-c2c[nH]c3ccc(F)cc23)c2cc(Br)ccc21"
unit_label = "%"
value_reported = 68.3

[[record]]
compound = "C=CCSC1=NC2C(N(CC)C(=O)N2CC)N1/N=C/C=C/c1ccccc1OC (stereo not given)"
unit_label = "%"
value_reported = 105

[[record]]
compound = "CN(C)c1cccc2c(S(=O)(=O)Nc3cccc(-c4csc(NC(=O)CCCCCN5CCN(CCO)CC5)n4)c3)cccc12"
unit_label = "%"
value_reported = 88.7

[[record]]
compound = "C/C(=N\\NC(=O)/C=C/CC(=O)O)c1nnn(-c2ccc([N+](=O)[O-])cc2)c1C"
unit_label = "%"
value_reported = 108

[[record]]
compound = "O=C(CSc1cc[n+](CCCCO)c2ccccc12)n1ccc2ccccc21"
unit_label = "%"
value_reported = 102

[[record]]
compound = "C/C(=N\\NC(N)=S)c1nnn(-c2ccc([N+](=O)[O-])cc2)c1C"
unit_label = "%"
value_reported = 98.7

[[record]]
compound = "Cc1ccc2c(n1)C(=O)C(Cl)=C(Nc1ccc(C(F)(F)F)cc1)C2=O"
unit_label = "%"
value_reported = 110

[[record]]
compound = "CC(C)C(/C=C/c1[nH]ncc1-c1cc(Cl)ccc1O)N1CCOCC1 (stereo not given)"
unit_label = "%"
value_reported = 99.4

[[record]]
compound = "CC(=O)/C(N=Nc1ccc2oc(=O)ccc2c1)=C(\\C)O"
unit_label = "%"
value_reported = 50.8


growth on OVCAR-5 ovarian for `C#Cc1nc(C(=O)NCCCCCCC(=O)NO)cs1` is 10.2

* * *

Below, each entry is listed alongside its reported growth.
Test system: NCI-H460 lung
Assay: NCI-60 one-dose screen, 48 h (100 = growth as untreated, 0 = no growth, -100 = all killed)
Details: 10 µM unless noted
The panel holds about 83,000 compounds, 20% with a hit somewhere; the sample as a whole holds those more often.
Entry rule: numbers only, all in %.

Would you please look over these solved cases?
[[record]]
compound = "Cc1ccc(-c2csc(N/N=C/c3cccs3)n2)cc1"
value_reported = 99.4

[[record]]
compound = "O=C(Nc1ccccc1)Nc1nc2ccc([N+](=O)[O-])cc2[nH]1"
value_reported = 44.1

[[record]]
compound = "Clc1ccc2[nH]cc(-c3cncn3CCc3ccc4c(c3)OCO4)c2c1"
value_reported = 81.6

[[record]]
compound = "CC(Nc1ncnc2ccc(-c3cnc4cnccn34)cc12)c1ccccc1 (centres undefined)"
value_reported = 61


Sample `Cc1csc(/N=C(N)/N=C(\N)c2cccc(C#N)c2)n1` ; growth observed: 64.8

Sample `CNC(=O)Nc1ccc(Nc2cc(-c3ccc(-n4cccn4)cc3)[nH]n2)c(C)c1` ; growth observed: 97.3

Sample `C=C(C)[C@@H]1CC[C@]2(C(=O)O)CC[C@]3(C)[C@H](CC[C@@H]4[C@@]5(C)C/C(=C/c6ccccn6)C(=O)C(C)(C)[C@@H]5CC[C@]43C)[C@@H]12` ; growth observed: 16.1

Sample `Cc1[nH]c(C(=O)Nc2ccccc2OCc2cccc(C(=O)NCCN)c2)cc1Cl` ; growth observed: 100

Sample `Cn1cc(-c2nnc(N)nc2-c2c[nH]c3ccc(Br)cc23)c2cc(Br)ccc21` ; growth observed: 107
